Every entry's value here was drawn from patent US9546158B2.

PARAMETER_MEASURED: melting point

Recorded results for 6 compounds are shown here.
>  <COMPOUND>
CN(CC(N)=O)C(=O)c1ccc2c(C3CC3)nn(-c3ncc(-c4cc([S+](C)[O-])ccc4F)cn3)c2c1 (stereo not drawn) [Compound No. 57]

>  <melting point>
274 to 277 °C

$$$$
>  <COMPOUND>
CC(O)c1ccc(F)c(-c2cnc(-n3nc(C4CC4)c4ccc(C(=O)N5CCOCC5)cc43)nc2)c1 (stereo not drawn) [Compound No. 52]

>  <melting point>
256 to 260 °C

$$$$
>  <COMPOUND>
CC(O)c1ccc(F)c(-c2cnc(-n3nc(C4CC4)c4ccc(C(=O)N(C)CC(N)=O)cc43)nc2)c1 (stereo not drawn) [Compound No. 53]

>  <melting point>
248 to 252 °C

$$$$
>  <COMPOUND>
CCOc1ccc(F)c(-c2cnc(-n3nc(C4CC4)c4ccc(C(=O)N5CCOCC5)cc43)nc2)c1 [Compound No. 51]

>  <melting point>
155 to 158 °C

$$$$
>  <COMPOUND>
Cc1nn(-c2ncc(-c3cc(S(C)(=O)=O)ccc3F)cn2)c2cc(C(=O)N(C)CC(N)=O)ccc12 [Compound No. 63]

>  <melting point>
255 to 259 °C

$$$$
>  <COMPOUND>
CCOc1ccc(F)c(-c2cnc(-n3nc(C4CC4)c4ccc(C(=O)N(C)CC(N)=O)cc43)nc2)c1 [Compound No. 50]

>  <melting point>
228 to 231 °C

$$$$

### Prompt Which melting point is listed for O=C(c1ccc2c(C3CC3)nn(-c3ncc(-c4ccccc4)cn3)c2c1)N1CCOCC1 [Compound No. 14] ?
### Response 218 to 222 °C

### Prompt Also need CC(C)(O)c1nn(-c2ncc(-c3ccccc3F)cn2)c2cc(C(=O)N3CCOCC3)ccc12 [Compound No. 31] , thanks.
### Response 235 to 237 °C

### Prompt Also need CN1CCN(C(=O)c2ccc3c(C4CC4)nn(-c4ncc(-c5ccccc5F)cn4)c3c2)CC1=O [Compound No. 17] , thanks.
### Response 217 to 221 °C

### Prompt Also need Cc1nn(-c2ncc(-c3cc(C(C)O)ccc3F)cn2)c2cc(C(=O)N(C)CC(N)=O)ccc12 (stereo not drawn) [Compound No. 61] , thanks.
### Response 191 to 195 °C

### Prompt Also need CN(CC(N)=O)C(=O)c1ccc2c(C3CC3)nn(-c3ncc(-c4cc(S(C)(=O)=O)ccc4F)cn3)c2c1 [Compound No. 59] , thanks.
### Response 311 to 315 °C

### Prompt Also need O=C(c1ccc2c(C3CC3)nn(-c3ncc(-c4ccccn4)cn3)c2c1)N1CCOCC1 [Compound No. 30] , thanks.
### Response 260 to 263 °C

### Prompt Also need CN(CC(N)=O)C(=O)c1ccc2c(C3CC3)nn(-c3ncc(-c4cc(C(C)(C)O)ccc4F)cn3)c2c1 [Compound No. 55] , thanks.
### Response 177 to 180 °C

### Prompt Also need CS(=O)(=O)c1ccc(F)c(-c2cnc(-n3nc(C4CC4)c4ccc(C(=O)N5CCOCC5)cc43)nc2)c1 [Compound No. 58] , thanks.
### Response 276 to 280 °C

### Prompt Also need O=C(c1cc2c(cn1)c(C1CC1)nn2-c1ncc(-c2ccccc2F)cn1)N1CCOCC1 [Compound No. 29] , thanks.
### Response 232 to 235 °C
